# System: NOMO1
# Assay notes: cell viability relative to DMSO control; higher = less cytotoxic
# Test parameters: RPMI 5 mM glucose + 10% FBS; 48 h; 0.0632 µM
Property label: cell viability (%)

{"columns": ["Compound", "Tested on", "Obs value"],
 "data": [
  ["CC(C)c1ccccc1Cc1cc(C(=O)Nc2ccc([S+](=O)([O-])c3ccccc3C(C)(C)C)cc2)c(O)c(O)c1O", "NOMO1", 114],
  ["CCN(C)C(=O)Oc1cccc([C@H](C)N(C)C)c1", "NOMO1", 108],
  ["C[S+]([O-])c1ccc(-c2nc(-c3ccc(F)cc3)c(-c3ccncc3)[nH]2)cc1 (configuration not stated)", "NOMO1", 113],
  ["N\\C1=N\\C2=C(N=C[N]2COC(CO)CO)C(=O)N1", "NOMO1", 103],
  ["COc1ccc(Nc2cc(-c3cnc(N)nc3)nc(N3CCOCC3)n2)cn1", "NOMO1", 83.4],
  ["O=c1[nH]cnc2c1ncn2[C@H]1CC[C@@H](CO)O1", "NOMO1", 87.7],
  ["CCN(CC)CCN1C(=O)\\C(=N/C2=CC=CC=C12)CC3=CC=C(OC)C=C3", "NOMO1", 97.4],
  ["Nc1nc(OCc2ccccc2)c2nc[nH]c2n1", "NOMO1", 113],
  ["CCN1C[C@]2(OC(=O)c3ccccc3NC(C)=O)CC[C@H](OC)[C@@]34[C@@H]2C[C@@H]([C@@H]13)[C@@]1(O)C[C@H](OC)[C@H]2C[C@@H]4[C@]1(O)[C@H]2OC", "NOMO1", 103],
  ["CC1(C)CC(O)CC(C)(C)N1[O]", "NOMO1", 128],
  ["CC(=O)[C@H]1CC[C@H]2[C@@H]3CCC4=CC(=O)CC[C@]4(C)[C@H]3CC[C@]12C", "NOMO1", 116],
  ["CO[C@@H]1C(N(C)C(=O)c2ccccc2)C[C@H]2O[C@]1(C)n1c3ccccc3c3c4c(c5c6ccccc6n2c5c31)C(=O)NC4=O (some centres not stated)", "NOMO1", 88.4],
  ["N[C@@H](CC(=O)N1CCn2c(nnc2C(F)(F)F)C1)Cc1cc(F)c(F)cc1F", "NOMO1", 92.4],
  ["Cc1ccc(C(=O)c2cc(O)c(O)c([N+](=O)[O-])c2)cc1", "NOMO1", 96],
  ["C#C[C@]1(O)CC[C@H]2[C@@H]3CCc4cc(OC)ccc4[C@H]3CC[C@@]21C", "NOMO1", 123],
  ["COC1=CC=C(C=C1)C2CC(=N/N2C3=CC=C(C=C3)[S+](N)([O-])=O)\\C4=CC=CC=C4 (configuration not stated)", "NOMO1", 102],
  ["CC[C@@]1(O)C[C@H](O[C@H]2C[C@H](N(C)C)[C@H](O[C@H]3C[C@H](O)[C@H](O[C@H]4CCC(=O)[C@H](C)O4)[C@H](C)O3)[C@H](C)O2)c2c(cc3c(c2O)C(=O)c2c(O)cccc2C3=O)[C@H]1C(=O)OC", "NOMO1", 106]
]}

Reference source: the supplement of paper PMC11451515
